Tested on: Staphylococcus aureus 503
assay-notes: MIC, standard strain 6
Format: cell-based
condition-summary: Staphylococcus aureus; S. aureus 503; two-fold dilution, Muller Hinton agar, 10^7 CFU/ml, 37° C., 18 hours; read-out: Minimal Inhibitory Concentration(MIC)

{"molecule": "CO/N=C(\\C(=O)N[C@@H]1C(=O)N2C(C(=O)[O-])=C(C[n+]3ccc(C(N)=S)c4c3CCC4)CS[C@H]12)c1csc(N)n1 [Example 5]", "assayed-system": "Staphylococcus aureus 503", "value-units": "µg/mL", "MIC": 391}
{"molecule": "CO/N=C(\\C(=O)N[C@@H]1C(=O)N2C(C(=O)[O-])=C(C[n+]3ccc(-c4nc(C)cs4)c4c3CCC4)CS[C@H]12)c1csc(N)n1 [Example 25]", "assayed-system": "Staphylococcus aureus 503", "value-units": "µg/mL", "MIC": 195}
{"molecule": "NC(=O)c1cc[n+](CC2=C(C(=O)[O-])N3C(=O)[C@@H](NC(=O)/C(=N\\OCCF)c4csc(N)n4)[C@H]3SC2)c2c1CCC2 [Example 14]", "assayed-system": "Staphylococcus aureus 503", "value-units": "µg/mL", "MIC": 781}
{"molecule": "CO/N=C(\\C(=O)N[C@@H]1C(=O)N2C(C(=O)[O-])=C(C[n+]3cccc4c3CCC4)CS[C@H]12)c1csc(N)n1 [cefpirome, reference compound]", "assayed-system": "Staphylococcus aureus 503", "value-units": "µg/mL", "MIC": 13}
{"molecule": "CO/N=C(\\C(=O)N[C@@H]1C(=O)N2C(C(=O)[O-])=C(C[n+]3ccc(NC=O)c4c3CCC4)CS[C@H]12)c1csc(N)n1 [Example 19]", "assayed-system": "Staphylococcus aureus 503", "value-units": "µg/mL", "MIC": 98}
{"molecule": "CCOC(=O)c1cc[n+](CC2=C(C(=O)[O-])N3C(=O)[C@@H](NC(=O)/C(=N\\OC)c4csc(N)n4)[C@H]3SC2)c2c1CCC2 [Example 1]", "assayed-system": "Staphylococcus aureus 503", "value-units": "µg/mL", "MIC": 781}

---

System: Salmonella typhimurium
assay-notes: MIC, standard strain 16
Assay type: cell-based
condition-summary: Salmonella enterica; S. typhimurium; two-fold dilution, Muller Hinton agar, 10^7 CFU/ml, 37° C., 18 hours; read-out: Minimal Inhibitory Concentration(MIC)
MIC for assorted molecules

{"molecule": "CCOC(=O)c1cc[n+](CC2=C(C(=O)[O-])N3C(=O)[C@@H](NC(=O)/C(=N\\OC)c4csc(N)n4)[C@H]3SC2)c2c1CCC2 [Example 1]", "MIC": "49 µg/mL"}
{"molecule": "CO/N=C(\\C(=O)N[C@@H]1C(=O)N2C(C(=O)[O-])=C(C[n+]3ccc(NC(C)=O)c4c3CCC4)CS[C@H]12)c1csc(N)n1 [Example 17]", "MIC": "49 µg/mL"}
{"molecule": "CO/N=C(\\C(=O)N[C@@H]1C(=O)N2C(C(=O)[O-])=C(C[n+]3cccc4c3CCC4)CS[C@H]12)c1csc(N)n1 [cefpirome, reference compound]", "MIC": "25 µg/mL"}
{"molecule": "NC(=O)c1cc[n+](CC2=C(C(=O)[O-])N3C(=O)[C@@H](NC(=O)/C(=N\\OCCF)c4csc(N)n4)[C@H]3SC2)c2c1CCC2 [Example 14]", "MIC": "49 µg/mL"}
{"molecule": "CO/N=C(\\C(=O)N[C@@H]1C(=O)N2C(C(=O)[O-])=C(C[n+]3ccc(C(N)=S)c4c3CCC4)CS[C@H]12)c1csc(N)n1 [Example 5]", "MIC": "49 µg/mL"}
{"molecule": "CO/N=C(\\C(=O)N[C@@H]1C(=O)N2C(C(=O)[O-])=C(C[n+]3ccc(C(N)=O)c4c3CCC4)CS[C@H]12)c1csc(N)n1 [Example 3]", "MIC": "25 µg/mL"}

---

Tested on: Escherichia coli TEM
assay-notes: MIC, standard strain 10
Type: cell-based
condition-summary: 18 h, read-out: Minimal Inhibitory Concentration(MIC)
A collection of compounds and their measured MIC
measurement-label: MIC (µg/mL)

{"compound": "CO/N=C(\\C(=O)N[C@@H]1C(=O)N2C(C(=O)[O-])=C(C[n+]3cccc4c3CCC4)CS[C@H]12)c1csc(N)n1 [cefpirome, reference compound]", "recorded-result": 49}
{"compound": "CO/N=C(\\C(=O)N[C@@H]1C(=O)N2C(C(=O)[O-])=C(C[n+]3ccc(C(N)=O)c4c3CCC4)CS[C@H]12)c1csc(N)n1 [Example 3]", "recorded-result": 49}
{"compound": "CO/N=C(\\C(=O)N[C@@H]1C(=O)N2C(C(=O)[O-])=C(C[n+]3ccc(NC=O)c4c3CCC4)CS[C@H]12)c1csc(N)n1 [Example 19]", "recorded-result": 49}

---

Measured MIC of individual entries
Test system: Pseudomonas aeruginosa 9.027
assay-notes: MIC, standard strain 12
Format: cell-based
condition-summary: Pseudomonas aeruginosa; P. aeruginosa 9.027; two-fold dilution, Muller Hinton agar, 10^7 CFU/ml, 37° C., 18 hours; read-out: Minimal Inhibitory Concentration(MIC)

{"compound": "CO/N=C(\\C(=O)N[C@@H]1C(=O)N2C(C(=O)[O-])=C(C[n+]3ccc(C(=O)O)c4c3CCC4)CS[C@H]12)c1csc(N)n1 [Example 2]", "assayed-system": "Pseudomonas aeruginosa 9.027", "MIC [µg/mL]": 12500}
{"compound": "NC(=O)c1cc[n+](CC2=C(C(=O)[O-])N3C(=O)[C@@H](NC(=O)/C(=N\\OCCF)c4csc(N)n4)[C@H]3SC2)c2c1CCC2 [Example 14]", "assayed-system": "Pseudomonas aeruginosa 9.027", "MIC [µg/mL]": 6250}
{"compound": "CO/N=C(\\C(=O)N[C@@H]1C(=O)N2C(C(=O)[O-])=C(C[n+]3ccc(C(N)=S)c4c3CCC4)CS[C@H]12)c1csc(N)n1 [Example 5]", "assayed-system": "Pseudomonas aeruginosa 9.027", "MIC [µg/mL]": 6250}
{"compound": "CCOC(=O)c1cc[n+](CC2=C(C(=O)[O-])N3C(=O)[C@@H](NC(=O)/C(=N\\OC)c4csc(N)n4)[C@H]3SC2)c2c1CCC2 [Example 1]", "assayed-system": "Pseudomonas aeruginosa 9.027", "MIC [µg/mL]": 12500}

---

Reported MIC values for a set of molecules
Tested on: Enterobacter cloacae 1321 E
assay-notes: MIC, standard strain 20
Type: cell-based
condition-summary: E. cloacae 1321 E, two-fold dilution, Muller Hinton agar, 10^7 CFU/ml, 37° C., 18 hours, read-out: Minimal Inhibitory Concentration(MIC)

{"molecule": "CO/N=C(\\C(=O)N[C@@H]1C(=O)N2C(C(=O)[O-])=C(C[n+]3ccc(C(N)=S)c4c3CCC4)CS[C@H]12)c1csc(N)n1 [Example 5]", "value-units": "µg/mL", "MIC": 13}
{"molecule": "CO/N=C(\\C(=O)N[C@@H]1C(=O)N2C(C(=O)[O-])=C(C[n+]3ccc(C(N)=O)c4c3CCC4)CS[C@H]12)c1csc(N)n1 [Example 3]", "value-units": "µg/mL", "MIC": 7}
{"molecule": "CO/N=C(\\C(=O)N[C@@H]1C(=O)N2C(C(=O)[O-])=C(C[n+]3ccc(-c4nc(C)cs4)c4c3CCC4)CS[C@H]12)c1csc(N)n1 [Example 25]", "value-units": "µg/mL", "MIC": 98}

---

Let's look at some molecules and their measured MIC.
Test system: Escherichia coli 0 55
assay-notes: MIC, standard strain 7
Type: cell-based
condition-summary: 055, E. coli 0 55, two-fold dilution, Muller Hinton agar, 10^7 CFU/ml, 37° C., 18 hours, read-out: Minimal Inhibitory Concentration(MIC)
measurement-label: MIC

{"molecule": "CO/N=C(\\C(=O)N[C@@H]1C(=O)N2C(C(=O)[O-])=C(C[n+]3ccc(NC(C)=O)c4c3CCC4)CS[C@H]12)c1csc(N)n1", "recorded-result": "25 µg/mL"}
{"molecule": "CO/N=C(\\C(=O)N[C@@H]1C(=O)N2C(C(=O)[O-])=C(C[n+]3ccc(C(N)=O)c4c3CCC4)CS[C@H]12)c1csc(N)n1", "recorded-result": "31 µg/mL"}
{"molecule": "CCOC(=O)c1cc[n+](CC2=C(C(=O)[O-])N3C(=O)[C@@H](NC(=O)/C(=N\\OC)c4csc(N)n4)[C@H]3SC2)c2c1CCC2", "recorded-result": "49 µg/mL"}
{"molecule": "CCO/N=C(\\C(=O)N[C@@H]1C(=O)N2C(C(=O)[O-])=C(C[n+]3ccc(C(N)=O)c4c3CCC4)CS[C@H]12)c1csc(N)n1", "recorded-result": "25 µg/mL"}
{"molecule": "CO/N=C(\\C(=O)N[C@@H]1C(=O)N2C(C(=O)[O-])=C(C[n+]3ccc(C(=O)O)c4c3CCC4)CS[C@H]12)c1csc(N)n1", "recorded-result": "25 µg/mL"}
{"molecule": "CC(C)(O/N=C(\\C(=O)N[C@@H]1C(=O)N2C(C(=O)[O-])=C(C[n+]3ccccc3)CS[C@H]12)c1csc(N)n1)C(=O)O [ceftazidime, reference compound]", "recorded-result": "98 µg/mL"}
{"molecule": "CO/N=C(\\C(=O)N[C@@H]1C(=O)N2C(C(=O)[O-])=C(C[n+]3ccc(C(N)=S)c4c3CCC4)CS[C@H]12)c1csc(N)n1", "recorded-result": "49 µg/mL"}

Where do these numbers come from? They come from patent US5593985A.
